- ASSAY NOTES: Tmax in Sprague-Dawley rat prostate gland at 10 mg/kg, po administered as single dose after 1 hr
- Type: ADME, organism-based
- Design: dose 10 mg/kg, route oral
QUANTITY NAME: Tmax (h)
Give the value in h but do not write h after it.

# input Give its Tmax value. Item: O=[N+]([O-])c1ccc(N2CCN(c3cccc(C(F)(F)F)c3)CC2)c(C(F)(F)F)c1
# output 1.5

----------
- ASSAY NOTES: Cmax in Sprague-Dawley rat hypothalamus at 10 mg/kg, po administered as single dose after 2 hrs
- Type: ADME, organism-based
- Set-up: dose 10 mg/kg, route oral
QUANTITY NAME: Cmax (ng/g)
Give the value in ng/g but do not write ng/g after it.

# input Give its Cmax value. Item: O=[N+]([O-])c1ccc(N2CCN(c3cccc(C(F)(F)F)c3)CC2)c(C(F)(F)F)c1
# output 124
